Where these numbers come from: patent US20100216751A1

Test: Pharmacokinetic evaluation of liquid bevirimat dosage forms, oral gavage, male Cynomolgus monkeys
Conditions: male, cynomolgus monkey, in vivo, po, 200 mg/monkey, Plasma Concentration, PG/glycerin/Vitamin ETPGS/ethanol formulation; 2.0 hr; AVG
Description: Six male Cynomolgus monkeys having an initial body weight of about 3.5 to about 4.5 kg are allowed 7 days to acclimate to their individual housing units. Monkeys are supplied with water and a commercial diet ad libitum prior to the study initiation. Food is withheld from the monkeys for a minimum of twelve hours before the study and during the study until four hours postdose when food is returned. Water is supplied ad libitum. […]

# item_smiles, unit_spec, concentration at 2 hr
measured = [
    ("C=C(C)[C@@H]1CC[C@]2(C(=O)O)CC[C@]3(C)[C@H](CC[C@@H]4[C@@]5(C)CC[C@H](OC(=O)CC(C)(C)C(=O)O)C(C)(C)[C@@H]5CC[C@]43C)[C@@H]12", "µg/mL", 217),
]
